This collection of values is drawn from the supplement of paper PMC7877785.

RUN DESCRIPTION: self-splicing fitness, log relative to wild type (ln ratio); higher = more splicing; Tetrahymena group I intron in knt gene, E. coli kanamycin selection, DiMSum; sequences stand for … in CUCUCU…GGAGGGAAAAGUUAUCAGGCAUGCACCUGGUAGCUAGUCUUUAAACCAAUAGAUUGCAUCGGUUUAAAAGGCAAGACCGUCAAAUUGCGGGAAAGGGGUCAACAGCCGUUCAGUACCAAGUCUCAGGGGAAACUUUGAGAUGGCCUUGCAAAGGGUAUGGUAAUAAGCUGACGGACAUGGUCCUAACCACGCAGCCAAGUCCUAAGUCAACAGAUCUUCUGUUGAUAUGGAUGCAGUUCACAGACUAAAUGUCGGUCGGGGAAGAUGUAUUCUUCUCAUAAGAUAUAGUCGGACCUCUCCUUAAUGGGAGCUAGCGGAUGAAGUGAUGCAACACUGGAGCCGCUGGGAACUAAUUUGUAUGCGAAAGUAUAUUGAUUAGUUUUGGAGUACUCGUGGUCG;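 note: selection with 25 µg/mL kanamycin versus none on LB agar overnight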
CONDITIONS USED: 37 °C
ASSAY ENDPOINT: self-splicing fitness (ln)
I only need the number, thanks.

stdin: May I ask what self-splicing fitness (ln) has been recorded for ACUGAGCAAUAUUACGCAUC ?
stdout: -2.08

stdin: May I ask what self-splicing fitness (ln) has been recorded for CGUCAGCAAUAUUACGCGGA ?
stdout: -3.17

stdin: May I ask what self-splicing fitness (ln) has been recorded for AAGCAGCAAUAUUACGUCCC ?
stdout: -0.803

stdin: May I ask what self-splicing fitness (ln) has been recorded for CAGGAGCAAUAUUACGACAU ?
stdout: -2.94

stdin: May I ask what self-splicing fitness (ln) has been recorded for CUGCAGCAAUAUUACGGGAG ?
stdout: -1.79

stdin: May I ask what self-splicing fitness (ln) has been recorded for ACCCAGCAAUAUUACGAAAG ?
stdout: -1.47

stdin: May I ask what self-splicing fitness (ln) has been recorded for GUGCAGCAAUAUUACGUCUA ?
stdout: 0.283

stdin: May I ask what self-splicing fitness (ln) has been recorded for AAGCAGCAAUAUUACGGUAU ?
stdout: -1.13

stdin: May I ask what self-splicing fitness (ln) has been recorded for CUCGAGCAAUAUUACGUCAG ?
stdout: -0.401

stdin: May I ask what self-splicing fitness (ln) has been recorded for AGUUAGCAAUAUUACGACAA ?
stdout: -0.562

stdin: May I ask what self-splicing fitness (ln) has been recorded for UUCAAGCAAUAUUACGGCAC ?
stdout: -1.11

stdin: May I ask what self-splicing fitness (ln) has been recorded for CCGUAGCAAUAUUACGAUGU ?
stdout: -1.79

stdin: May I ask what self-splicing fitness (ln) has been recorded for UGCAAGCAAUAUUACGCCGA ?
stdout: -0.485

stdin: May I ask what self-splicing fitness (ln) has been recorded for UCAGAGCAAUAUUACGCAGU ?
stdout: -1.83

stdin: May I ask what self-splicing fitness (ln) has been recorded for GGACAGCAAUAUUACGGUUA ?
stdout: 0.525

stdin: May I ask what self-splicing fitness (ln) has been recorded for CGUAAGCAAUAUUACGUAAC ?
stdout: -2.51
